biological target: Squalene synthase (Homo sapiens); assay: Inhibition of squalene synthase from human hepatoma cells (HepG2)
Sequence (P37268 whole entry): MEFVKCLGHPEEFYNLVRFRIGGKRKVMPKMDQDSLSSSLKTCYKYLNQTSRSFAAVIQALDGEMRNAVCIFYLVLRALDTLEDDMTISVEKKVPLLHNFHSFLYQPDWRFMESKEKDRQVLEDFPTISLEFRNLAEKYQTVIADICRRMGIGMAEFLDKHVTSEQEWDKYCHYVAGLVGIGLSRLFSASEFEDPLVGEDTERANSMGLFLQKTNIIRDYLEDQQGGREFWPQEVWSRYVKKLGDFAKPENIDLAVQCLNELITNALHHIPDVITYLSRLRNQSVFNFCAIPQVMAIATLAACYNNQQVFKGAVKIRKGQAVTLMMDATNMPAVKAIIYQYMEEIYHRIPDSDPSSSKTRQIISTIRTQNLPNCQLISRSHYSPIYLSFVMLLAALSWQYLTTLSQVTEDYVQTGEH
Experimental Endpoint: IC50 (µM)

Consider the reported IC50 for these compounds:
[
  {
    "Compound": "COc1cccc([C@H]2O[C@H](CC(=O)N3CCC(CC(=O)O)CC3)C(=O)N(CC(C)(C)COC(C)=O)c3ccc(Cl)cc32)c1OC [LAPAQUISTAT ACETATE]",
    "IC50 [µM]": 0.078
  },
  {
    "Compound": "COc1cccc([C@H]2O[C@H](CC(=O)N[C@H](C)C(=O)O)C(=O)N(CC(C)(C)CO)c3ccc(Cl)cc32)c1OC",
    "IC50 [µM]": 0.018
  }
]

a = COc1cccc([C@H]2O[C@H](CC(=O)NCC(=O)O)C(=O)N(CC(C)(C)CO)c3ccc(Cl)cc32)c1OC
b = COc1cccc([C@H]2O[C@H](CC(=O)N3CCC(CCCC(=O)O)CC3)C(=O)N(CC(C)(C)CO)c3ccc(Cl)cc32)c1OC
Q. Pick one, a or b : lowest reported IC50. Lab note: record the label of whichever item you select.
A. a
(a: 0.015 µM, b: 0.07 µM)
